- System: MOLT-4 leukemia
- Experimental Details: NCI-60 one-dose screen, 48 h (100 = growth as untreated, 0 = no growth, -100 = all killed)
- Conditions: 10 µM unless noted
The panel holds about 83,000 compounds, 20% with a hit somewhere; the sample as a whole holds those more often.
Classification by growth | ranges: low bracket = under 20%, middle bracket = from 20% up to 80%, high bracket = 80% and over

[
  {
    "Compound": "Cc1ccc2nc(-c3ccc(C(=O)NNC(=S)Nc4ccccc4)cc3)[nH]c2c1",
    "Classification": "high bracket"
  }
]

**Q:** Which class is correct for the following compound? O=C(/C=C/C12c3ccccc3C(c3ccccc31)C1C(=O)NC(=O)C12)c1ccc(Br)cc1 (stereo unspecified)
**A:** low bracket

**Q:** Would you kindly repeat that for `O=C(NNC(=O)c1nc2cc(F)ccc2n2cccc12)c1cnccn1` ?
**A:** low bracket

**Q:** Would you kindly repeat that for `Ic1ccccc1I` ?
**A:** high bracket

**Q:** Would you kindly repeat that for `O=C1Nc2ccccc2/C1=C\c1c[nH]c2ccc(Br)cc12` ?
**A:** middle bracket

**Q:** Would you kindly repeat that for `O=C(O)[C@@H](Cc1ccc2ccccc2c1)NC(=O)n1c2ccccc2c2ccccc21` ?
**A:** middle bracket

**Q:** Would you kindly repeat that for `CC(C)(C)c1cc(Cl)c(O)c(CNCCO)c1` ?
**A:** high bracket

**Q:** Would you kindly repeat that for `C#CCOc1cccc(-c2ncnc3cc(NC(=O)C=C)ccc23)c1` ?
**A:** middle bracket

**Q:** Would you kindly repeat that for `Cc1ccc2nc(NC(=O)CSc3nc(-c4ccccc4)c(C#N)c4nnnn34)sc2c1` ?
**A:** high bracket

**Q:** Would you kindly repeat that for `O=C(Nc1cc(Cl)ccc1O)c1cccc(Nc2ccnc(C(F)(F)F)c2)c1` ?
**A:** low bracket

**Q:** Would you kindly repeat that for `COc1ccc(-c2cc(-c3ccccc3)nc(N3CCN(CCNc4ccnc5cc(Cl)ccc45)CC3)n2)cc1` ?
**A:** low bracket

**Q:** Would you kindly repeat that for `C=C(C)[C@@H]1CC[C@]2(C)[C@H](CC=C3[C@@H]4CC(C)(C)CC[C@]4(CO)CC[C@]32C)[C@@]1(C)CCCN` ?
**A:** low bracket

###

- Test system: MCF7 breast
- Experimental Details: NCI-60 one-dose screen, 48 h (100 = growth as untreated, 0 = no growth, -100 = all killed)
- Conditions: 10 µM unless noted
This is part of a sample that, as a whole, favours compounds with a hit. Of some 83,000 tested, about 20% had one in any assay. Activity calls are given as the source filed them. How the source made its calls: active means growth percent below 10; inactive means the rest.
growth overview

**Q:** What is its growth for MCF7 breast? Entry: `COc1ccc(-c2ccc(-c3ccc(C(=N)N)nc3)s2)cc1Cl`
**A:** -70% (active)

**Q:** Would you kindly repeat that for `COc1ccc(-c2nc(-c3cn(C)c4ncccc34)cs2)cc1` ?
**A:** -17.8% [100 µM] (active)

**Q:** Would you kindly repeat that for `CN(CCC(=O)c1ccccc1)CCC(=O)c1ccccc1` ?
**A:** 70.2% (inactive)

**Q:** Would you kindly repeat that for `CN1CCN(C(=S)SCCCCOc2cc(=O)oc3ccccc23)CC1` ?
**A:** 78.6% (inactive)

**Q:** Would you kindly repeat that for `COc1ccc(/C=C(/C(=O)n2cnnn2)c2cc(OC)c(OC)c(OC)c2)cc1` ?
**A:** 16.2% (inactive)

**Q:** Would you kindly repeat that for `CC1=C2[C@@H](CC1)[C@]1(C)O[C@@](c3ccccc3)(C[C@H]1OC(=O)CO)[C@H]2OC(=O)/C=C/c1ccccc1` ?
**A:** 78.6% (inactive)

**Q:** Would you kindly repeat that for `Cc1nn(-c2ccccc2)c(N)c1N=C1NC(=O)/C(=C/c2ccc(Br)cc2)S1` ?
**A:** 78.2% (inactive)

**Q:** Would you kindly repeat that for `CN1CCN(CC(=O)Nc2ccc3ncnc(Nc4ccc(Oc5cccc(C(F)(F)F)c5)c(Cl)c4)c3c2)CC1` ?
**A:** -51.3% (active)

**Q:** Would you kindly repeat that for `CC(C)(C)n1cc(-c2ccnc(NCCCNS(=O)(=O)c3ccc(C(F)(F)F)cc3)c2)c(-c2cccc(F)c2)n1` ?
**A:** 66.2% (inactive)
